- ASSAY_SYSTEM: T1, MutS (Escherichia coli, UniProt P23909 1-853)
- T1 sequence: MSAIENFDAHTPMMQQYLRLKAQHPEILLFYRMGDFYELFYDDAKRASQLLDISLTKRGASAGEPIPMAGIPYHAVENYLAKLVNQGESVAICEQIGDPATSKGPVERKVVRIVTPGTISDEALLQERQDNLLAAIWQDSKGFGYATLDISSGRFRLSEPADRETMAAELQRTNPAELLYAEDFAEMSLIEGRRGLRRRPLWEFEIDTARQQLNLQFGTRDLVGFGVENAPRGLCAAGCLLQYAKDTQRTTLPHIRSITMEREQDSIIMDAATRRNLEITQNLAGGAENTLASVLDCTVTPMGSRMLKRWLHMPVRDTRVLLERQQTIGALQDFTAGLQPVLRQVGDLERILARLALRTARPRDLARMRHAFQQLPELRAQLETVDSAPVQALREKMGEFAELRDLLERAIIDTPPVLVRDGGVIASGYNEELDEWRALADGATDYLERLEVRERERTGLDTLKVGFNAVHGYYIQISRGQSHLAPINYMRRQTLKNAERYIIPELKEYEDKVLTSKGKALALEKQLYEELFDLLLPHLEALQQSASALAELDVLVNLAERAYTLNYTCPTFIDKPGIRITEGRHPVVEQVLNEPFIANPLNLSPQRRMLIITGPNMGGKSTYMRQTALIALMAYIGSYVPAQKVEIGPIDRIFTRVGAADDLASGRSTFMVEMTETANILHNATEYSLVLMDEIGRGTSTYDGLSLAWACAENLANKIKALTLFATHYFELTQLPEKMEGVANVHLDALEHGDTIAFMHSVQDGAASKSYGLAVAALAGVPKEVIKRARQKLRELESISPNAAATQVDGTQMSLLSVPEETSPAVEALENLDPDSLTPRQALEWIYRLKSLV
- PROTOCOL_SUMMARY: FRET equilibrium titration
Just a reminder that ties go to F: only Kd strictly below 70 nM counts as T.

Request: Here's an entry: 30-GT (dsDNA) DNA 1: AACTGCCAGGCACCAGTGTCAGCGTCGTAT DNA 2: ATACGACGCTGACACTGGTGCTTGGCAGTT . Is its Kd below 70 nM?
Response: F

Request: Identify whether the binder 30-1ΔT (dsDNA) DNA 1: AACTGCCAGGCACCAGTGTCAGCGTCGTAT DNA 2: ATACGACGCTGACACTGGTGCCTTGGCAGTT records Kd below 70 nM.
Response: T

Request: Strictly below 70 nM: is that where Kd of 30-CC (dsDNA) DNA 1: AACTGCCACGCACCAGTGTCAGCGTCGTAT DNA 2: ATACGACGCTGACACTGGTGCCTGGCAGTT sits?
Response: F

Request: Just wondering, is Kd of 30-TT (dsDNA) DNA 1: AACTGCCATGCACCAGTGTCAGCGTCGTAT DNA 2: ATACGACGCTGACACTGGTGCTTGGCAGTT below 70 nM?
Response: F

Request: In the record for 30-GG (dsDNA) DNA 1: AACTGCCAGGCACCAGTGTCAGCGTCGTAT DNA 2: ATACGACGCTGACACTGGTGCGTGGCAGTT , is Kd less than 70 nM?
Response: F
